The reported measurements were obtained from a melting point compilation (Tetko et al.; mined from patent text by program, amines drawn as free bases though some values may be those of a salt).

Recorded measurements of melting point, one per entry

| molecule | melting point |
| --- | --- |
| Cc1nnc(CN2C(=O)c3ccccc3C2=O)n1-c1ccc(Cl)cc1C(=O)c1ccccc1Cl | 262 to 265 °C |
| NS(=O)(=O)c1ccc(S(=O)(=O)N2CCC(=O)CC2)cc1 | 194 to 195 °C |
| OC[C@H]1O[C@@H](n2cnc3c(N[C@H]4CC[C@H](O)CC4)nc(Cl)nc32)[C@H](O)[C@@H]1O | 203 to 204 °C |
| Cc1cc2c(NC(=S)N3Cc4ccsc4CC3CO)cccc2cn1 (racemic) | 190 °C |
| COc1ccc(S(=O)(=O)N(CC(N)=O)c2ccc(F)cc2C(O)c2ccccc2Cl)cc1OC (stereo not given) | 232 °C |
| COc1ccc(-c2cncc(OC3SCC(O)C(O)C3O)c2)cc1Cl (stereo not given) | 165 °C |
| CC1(C)C(C=C(C#N)c2ccccc2)C1C(=O)O (stereo not given) | 186 to 188 °C |
| CC#CCOc1cc(C=O)ccc1OC | 81 to 83 °C |
| CCOC(=O)C(=O)CC(=O)c1cn(Cc2ccc(Cl)cc2)c2ccccc2c1=O | 174 to 176 °C |
| CC(C)(C)c1ccc(N)c([N+](=O)[O-])c1 | 107 to 108 °C |

====

property label: melting point

| compound | obs value |
| --- | --- |
| CCn1c(=O)ccc2cnc(Nc3ccc(OCCOC)cc3)nc21 | 169 to 171 °C |
| CCOCOCCCOn1cnc2c(=O)[nH]c(N)nc21 | 242 to 245 °C |
| COc1ccc(C(=O)Nc2ccccc2C(=O)NCCCC(=O)O)cc1 | 172 to 174 °C |
| Cn1cnc(COc2nn3c(-c4ccccc4F)nnc3cc2C2(C)CCOCC2)n1 | 154 °C |
| Nc1ccc(CC(NC(=O)CCCCCCCCCCCNC(=O)C(c2ccccc2)c2ccccc2)c2ccccc2)cc1 (stereo not given) | 107 to 114 °C |

====

| molecule | melting point |
| --- | --- |
| O=C(Nc1ccc(CN2C(=O)C=C(CCO)Sc3ccccc32)cc1)c1ccccc1-c1ccccc1 | 116 to 120 °C |
| CSC(=NC(=O)c1ccccc1)N1CC=C(c2cccc(C(F)(F)F)c2)n2ncc(C(N)=O)c21 | 172 to 175 °C |
| COc1ccc(C(C)(C)C)cc1C(N)=NO | 132 to 133 °C |
| Fc1cc(CC2(Cc3ccnc(F)c3)c3ccccc3Oc3ncccc32)ccn1 | 185 to 189 °C |
| Oc1ccc2nc(-c3ccccc3)cc(Cl)c2c1 | 180 to 181 °C |
| CCOC(=O)N1Cc2ccccc2P1(C)=O (stereo not given) | 102 to 104 °C |
| Cc1cccc(NC(=O)NCC(=O)N(CC(=O)OC(C)(C)C)c2ccccc2C(=O)N2CCCC(C)(C)C2)c1 | 207 °C |
| Nc1ccc(N2CCN(Cc3ncc(-c4ccccc4)o3)CC2)cc1 | 130 °C |
| CCCc1c(OCCCCCC(=O)c2cc(OC)c(OC)cc2F)ccc(C(=O)OC)c1O | 127 to 129 °C |
| Cc1cc(SC#N)c(C(C)(C)C)cc1O | 99 to 102 °C |
| CCOc1nc(Cl)nc2c1oc1nc(-c3ccccc3)cc(C)c12 | 131 to 132 °C |
| O=C(Oc1cccc(F)c1)c1ccccc1F | 37.5 to 38.5 °C |
| CCCc1c(OCCCc2ccc3cc(OC)c(OC)cc3c2)ccc(C(=O)OCc2ccccc2)c1O | 94 to 96 °C |
| CCCCCCCNC(=O)N(C)c1cccc(-c2ccc(C=CC(=O)O)cc2)c1 | 125 to 126 °C |
| CN(Cc1sc2c(=O)c(C(=O)NCc3ccc(Cl)cc3)cn(C)c2c1CO)CC(O)c1ccc(C#N)s1 (stereo not given) | 188 to 190 °C |
| O=c1[nH]cc(F)c(=S)[nH]1 | 254 to 255 °C |
| CCOC(=O)c1cc([N+](=O)[O-])c(C)nc1C(=O)OCC | 90 to 91.5 °C |
| CC(C)c1ccc(S(=O)(=O)n2c(Cc3ccc(C(=O)O)c(F)c3)cc3cc(C(F)(F)F)ccc32)cc1 | 197 °C |
| CCCc1cc(O)nc(NCC)n1 | 108 to 110 °C |
| O=C(NCCC1CC2CCC1C2)n1cc(F)c(=O)[nH]c1=O (stereo not given) | 128 to 130 °C |
